tgt: T1, BTN3A3 (Homo sapiens, UniProt O00478)
T1 construct: Fc (Fc-chimera); purchased R&D systems; host or cells: HEK293
measurementProtocol: BTN isoform binding of yeast display antibodies (Octet isoform binding profile, binding affinity)
measurementParameters: Table 4; Yes/No; hIgG1-297A isotype

molecule | BTN3A3 Binding
3A (antibody, V domains shown) VH: QVQLVQSGAEVKKPGASVKVSCKASGYTFTSYYMHWVRQAPGQGLEWMGIINPGGGSTSYAQKFQGRVTMTRDTSTSTVYMELSSLRSEDTAVYYCARDAGHDYGDMAYWGQGTLVTVSS VL: DIQMTQSPSTLSASVGDRVTITCRASQSISSWLAWYQQKPGKAPKLLIYKASSLESGVPSRFSGSGSGTEFTLTISSLQPDDFATYYCQQYRSFPTFGGGTKVEIK | Yes
1G (antibody, V domains shown) VH: QVQLVQSGAEVKKPGASVKVSCKASGYTFTSYGISWVRQAPGQGLEWMGWISAYNGNTNYAQKLQGRVTMTTDTSTSTAYMELRSLRSDDTAVYYCARLGATVAYFDLWGRGTLVTVSS VL: EIVLTQSPATLSVSPGERATLSCRASQSVSSNLAWYQQKPGQAPRLLIYGASTRATGIPARFSGSGSGTEFTLTISSLQSEDFAVYYCQQDVYWPFTFGGGTKVEIK | Yes
2A (antibody, V domains shown) VH: QVQLVQSGAEVKKPGASVKVSCKASGYTFTSYYIHWVRQAPGQGLEWMGIINPSGGSTSYAQKFQGRVTMTRDTSTSTVYMELSSLRSEDTAVYYCARATWEALHYWGQGTLVTVSS VL: EIVMTQSPATLSVSPGERATLSCRASQSVGSNLAWYQQKPGQAPRLLIYGASTRATGIPARFSGSGSGTEFTLTISSLQSEDFAVYYCQQYYAWPRTFGGGTKVEIK | Yes
